Taken from ChEMBL document CHEMBL2417373.

# measured.target: Orexin/Hypocretin receptor type 1 (Homo sapiens)
# test: Agonist activity at OX1 receptor (unknown origin) expressed in RD-HGA16 cells assessed as calcium mobilization at 10 uM by fluorescence assay
# Assay type: functional, cell-based
The source made the active and inactive calls. No cut-off for these calls is given here.
quantity: Activity

Study these solved cases before continuing.
compound	measured
COc1ccc(CC2c3cc(OC)c(OC)cc3CCN2CC(=O)NCc2cccnc2)cc1OC (stereo not given)	inactive
CCOc1cc2c(cc1OC)CCN(CC(=O)NCc1ccccc1)C2Cc1ccc(OC)c(OC)c1 (stereo not given)	inactive
COc1ccc(CC2c3cc(OC)c(OC)cc3CCN2CC(=O)NCc2ccc(Cl)cc2)cc1OC (stereo not given)	inactive
COc1ccc(CC2c3cc(OC)c(OC)cc3CCN2CC(=O)NCc2ccccn2)cc1OC (stereo not given)	inactive

Now for the compound whose Activity we want.
Notebook entry, Orexin/Hypocretin receptor type 1 (Homo sapiens) assay: Activity of COc1ccc(CC2c3cc(OCCCCOc4ccccc4)c(OC)cc3CCN2CC(=O)NCc2ccccc2)cc1OC (stereo not given) = ?
inactive

###

# Species on record: Homo sapiens
# test: Selectivity ratio of Ke for OX2 receptor (unknown origin) to Ke for OX1 receptor (unknown origin)
quantity: Ratio
// return just the number, without any unit appended

Study these solved cases before continuing.
compound	quantity	measured
COc1ccc(CC2c3cc(OC)c(OC)cc3CCN2CC(=O)Nc2ccccc2-c2ccccc2)cc1OC (stereo not given)	Ratio	1.9
COc1ccc(CC2c3cc(OS(C)(=O)=O)c(OC)cc3CCN2CC(=O)NCc2ccccc2)cc1OC (stereo not given)	Ratio	297
COc1ccc(CC2c3cc(OC)c(OC)cc3CCN2CC(=O)NCc2ccc(F)cc2)cc1OC (stereo not given)	Ratio	12.4

So what's the measured Ratio for this one? COc1cc2c(cc1O)C(Cc1ccc(OC)c(OC)c1)N(CC(=O)NCc1ccccc1)CC2 (stereo not given)
3.8

Do the same for COc1ccc(CC2c3cc(OC)c(OC)cc3CCN2CC(=O)N2CCCC(c3ccccc3)C2)cc1OC (stereo not given) please
2.6

###

# measured.target: Orexin/Hypocretin receptor type 1 (Homo sapiens)
# Sequence (whole entry): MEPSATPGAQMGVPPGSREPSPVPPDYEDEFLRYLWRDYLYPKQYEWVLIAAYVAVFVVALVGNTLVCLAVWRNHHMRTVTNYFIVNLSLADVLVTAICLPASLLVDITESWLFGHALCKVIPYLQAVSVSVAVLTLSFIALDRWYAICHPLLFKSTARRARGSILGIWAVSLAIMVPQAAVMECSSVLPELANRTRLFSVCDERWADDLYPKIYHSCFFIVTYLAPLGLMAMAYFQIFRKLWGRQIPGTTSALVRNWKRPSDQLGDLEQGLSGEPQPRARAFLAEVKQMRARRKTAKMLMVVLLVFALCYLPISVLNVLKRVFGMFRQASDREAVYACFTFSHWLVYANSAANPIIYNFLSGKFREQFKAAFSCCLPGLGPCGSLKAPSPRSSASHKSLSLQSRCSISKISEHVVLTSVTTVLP
# test: Antagonist activity at OX1 receptor (unknown origin) expressed in RD-HGA16 cells assessed as inhibition orexin A-induced calcium mobilization by fluorescence assay
# Type: functional, cell-based
Criterion: Ke(app) strictly less than 200 nM. Met: 1. Not met: -1.

Use the examples below as a reference point.
compound	label.class
COc1ccc(CC2c3cc(OCc4ccccc4)c(OC)cc3CCN2CC(=O)NCc2ccccc2)cc1OC (stereo not given)	-1
COc1cc2c(cc1O)C(Cc1ccc(OC)c(OC)c1)N(CC(=O)NCc1ccccc1)CC2 (stereo not given)	-1
COc1ccc(CC2c3cc(OS(C)(=O)=O)c(OC)cc3CCN2CC(=O)NCc2ccccc2)cc1OC (stereo not given)	1
COc1ccc(CC2c3cc(OCC(F)(F)F)c(OC)cc3CCN2CC(=O)NCc2cccnc2)cc1OC (stereo not given)	1
COc1ccc(CC2c3cc(OC)c(OC)cc3CCN2CC(=O)NCc2cccnc2)cc1OC (stereo not given)	1
COc1ccc(CC2c3cc(OC)c(OC)cc3CCN2CC(=O)NCc2ccc(Cl)cc2)cc1OC (stereo not given)	1

Would you kindly verify if Ke(app) of COc1ccc(CC2c3cc(OC)c(OC)cc3CCN2CC(=O)Nc2cccc(-c3ccccc3)c2)cc1OC (stereo not given) is strictly less than 200 nM?
-1

Do the same for COc1ccc(CC2c3cc(OCCN(C)C)c(OC)cc3CCN2CC(=O)NCc2ccccc2)cc1OC (stereo not given) please
-1

Do the same for COc1ccc(CC2c3cc(OC)c(OC)cc3CCN2CC(=O)NCc2ccccn2)cc1OC (stereo not given) please
-1

Do the same for COc1ccc(CC2c3cc(OCCN4CCCCC4)c(OC)cc3CCN2CC(=O)NCc2ccccc2)cc1OC (stereo not given) please
-1

Do the same for CCCCCCCNC(=O)CN1CCc2cc(OC)c(OC)cc2C1Cc1ccc(OC)c(OC)c1 (stereo not given) please
-1

Do the same for COc1ccc(CC2c3cc(OCC4CCCCC4)c(OC)cc3CCN2CC(=O)NCc2ccccc2)cc1OC (stereo not given) please
-1

Do the same for COc1ccc(CC2c3cc(OC)c(OC)cc3CCN2CC(=O)N2CCCC(c3ccccc3)C2)cc1OC (stereo not given) please
-1

Do the same for CCOc1cc2c(cc1OC)CCN(CC(=O)NCc1ccccc1)C2Cc1ccc(OC)c(OC)c1 (stereo not given) please
1
